Test system: CCRF-CEM leukemia
EXPERIMENTAL_PROTOCOL: NCI tumour cell line growth inhibition, 48 h; in the data active means GI50 below about 0.43 µM; inactive means the rest
Answer with one of the outcomes given here: active, inactive

[[record]]
molecule = "COc1cc([N+](=O)[O-])c(OC)cc1-c1nc2sc(Cl)cn2c1/C=N/Nc1ccccn1"
classification = "inactive"

[[record]]
molecule = "CCCCCCCCCCCC[n+]1ccccc1 (tested in a mixture with another compound)"
classification = "inactive"

[[record]]
molecule = "CCC1=C[C@@H]2CN(C1)Cc1c([nH]c3ccccc13)[C@@](C(=O)OC)(c1cc3c(cc1OC)N(C)[C@H]1[C@@](O)(C(=O)OC)[C@H](OC(C)=O)[C@]4(CC)[C@@H]5C[C@@H]5CN5CC[C@]31[C@@H]54)C2"
classification = "active"

[[record]]
molecule = "COc1ccc(/C=C2/CCc3cc4ccc(OC)cc4[o+]c32)c(O)c1"
classification = "inactive"

[[record]]
molecule = "NC(=O)C1(N2CCCCC2)CCN(CCCC(=O)c2ccc(F)cc2)CC1"
classification = "active"

[[record]]
molecule = "CC(=O)[CH-]C(C)=O.[CH2-]C.[CH2-]C.[Tl+3]"
classification = "inactive"

[[record]]
molecule = "CN(C)Cc1c[nH]c2c(NCCN)c3c(c(NCCN)c12)C(=O)c1ccccc1C3=O"
classification = "inactive"


Recorded test call requested for Cn1cc(-c2csc(-c3cn(C)c4ccccc34)n2)c2cnccc21
inactive

* * *

Tested on: SNB-75 CNS
EXPERIMENTAL_PROTOCOL: NCI tumour cell line growth inhibition, 48 h; in the data active = GI50 below about 0.43 µM; inactive = the rest
Answer with one of the outcomes given here: YES = active, NO = inactive

Consider the worked cases shown below.
[[record]]
molecule = "Cn1c([N+](=O)[O-])cnc1/C=C1\\Oc2cc(Cl)ccc2C1=O"
subject_of_test = "SNB-75 CNS"
classification = "NO"

[[record]]
molecule = "COc1ccc2cc(-c3ccc(-c4ccc(C(=N)N)s4)s3)ccc2c1"
subject_of_test = "SNB-75 CNS"
classification = "NO"

[[record]]
molecule = "CCCCCCCCCCCC[n+]1ccccc1 (tested in a mixture with another compound)"
subject_of_test = "SNB-75 CNS"
classification = "NO"

[[record]]
molecule = "Cc1cc(Nc2nc(SCc3ccc(C(=O)Nc4ccc(F)cc4N)cc3)nn3cccc23)n[nH]1"
subject_of_test = "SNB-75 CNS"
classification = "YES"

[[record]]
molecule = "COc1cc2c(cc1-c1c(C)noc1C)cc(C)c(=O)n2Cc1ccccn1"
subject_of_test = "SNB-75 CNS"
classification = "YES"

[[record]]
molecule = "NC(=O)c1cccc(Nc2nccc(Nc3cccc(F)c3)n2)c1"
subject_of_test = "SNB-75 CNS"
classification = "NO"


Attention now shifts to the item below.
Recorded test call requested for O=c1c2c3c(sc2n2c(-c4cc(-c5ccccc5)nn4-c4ccccc4)nnc2n1Cc1ccccc1)CCCC3
NO

* * *

Test system: MALME-3M melanoma
EXPERIMENTAL_PROTOCOL: NCI tumour cell line growth inhibition, 48 h
PARAMETER_MEASURED: TGI

Worked examples follow.
[[record]]
compound = "COc1ccc2nc3cc(Cl)ccc3c(NCCCNCCCNc3c4ccc(Cl)cc4nc4ccc(OC)cc34)c2c1"
result = "1.22 µM"

[[record]]
compound = "CC1(C)OC2COC3(CNO)OC(C)(C)OC3C2O1 (stereo unspecified)"
result = "> 100 µM"

[[record]]
compound = "O=c1ccc2cc3ccc4cccc5ccc(c2o1)c3c45"
result = "> 100 µM"


// batch mode: one TGI value per listed entry
1. O=C(NC(Cc1ccc(I)cc1)C(=O)O)c1ccc(I)cc1 (stereo unspecified)
2. O=C(/C=C/c1ccsc1)c1ccsc1
3. Cc1ccccc1C(O)(c1nccn1C)c1nccn1C
4. O=C1C(SCCO)=C(SCCO)C(=O)c2ccccc21
5. CCOC(=O)c1ccc(N[C@@H]2c3cc4c(cc3C(C3=CC(=O)C(=O)C(OC)=C3)[C@H]3C(=O)OCC32)OCO4)cc1 (stereo partly specified)

1: > 100 µM; 2: 75.1 µM; 3: > 100 µM; 4: 2.85 µM; 5: 11.2 µM

* * *

Tested on: DMS 273 small cell lung
EXPERIMENTAL_PROTOCOL: NCI tumour cell line growth inhibition, 48 h
PARAMETER_MEASURED: TGI

Worked examples follow.
[[record]]
compound = "Cc1ccccc1Nc1nc2c(s1)C(=O)c1ccccc1C2=O"
subject_of_test = "DMS 273 small cell lung"
parameter_measured = "TGI"
result = "21.4 µM"

[[record]]
compound = "CC(C(=O)n1nnc2ccccc21)N(c1ccccc1)c1ccccc1 (stereo not drawn)"
subject_of_test = "DMS 273 small cell lung"
parameter_measured = "TGI"
result = "> 100 µM"

[[record]]
compound = "CC1=C(C(=O)Nc2ccccc2C)C(/C=C/c2ccccc2)C(C(=O)Nc2ccccc2C)=C(C)N1"
subject_of_test = "DMS 273 small cell lung"
parameter_measured = "TGI"
result = "> 100 µM"

[[record]]
compound = "CCOC(=O)/C(=C/c1cccc(OC)c1)N(CC)CC"
subject_of_test = "DMS 273 small cell lung"
parameter_measured = "TGI"
result = "> 100 µM"

[[record]]
compound = "COc1c(Br)cc(Br)c(OC)c1-c1[nH]c(Br)c(Br)c1Br"
subject_of_test = "DMS 273 small cell lung"
parameter_measured = "TGI"
result = "25.1 µM"

[[record]]
compound = "CC(=O)[CH-]C(C)=O.[CH2-]C.[CH2-]C.[Tl+3]"
subject_of_test = "DMS 273 small cell lung"
parameter_measured = "TGI"
result = "> 100 µM"


// batch mode: one TGI value per listed entry
1. O=C(NC12CC3CC(CC(C3)C1)C2)C(=O)c1c[nH]c2ccc(Cl)cc12
2. CC(=O)O[C@]12CCCCCC1C1(O)C(O)CCC[C@H]12 (stereo partly drawn)
3. CC(=O)N(C(C)=O)C1=C2c3ccccc3N(S(=O)(=O)c3ccccc3)C2n2c(=O)n(-c3ccccc3)c(=O)n2C1 (stereo not drawn)
4. CCN(CC)CC(=O)N1CCc2c([nH]c3ccccc23)C1c1cccnc1 (stereo not drawn)
5. O=S(=O)(O)c1cc2ccc1/C=C\c1ccc(cc1S(=O)(=O)O)N=Nc1ccc(c(S(=O)(=O)O)c1)/C=C\c1ccc(cc1S(=O)(=O)O)N=N2
6. Cc1cc(N(CCC#N)CCC#N)ccc1/C=C1N=C(/C=C/c2ccccc2)OC(=O)N\1
7. CC/C(=N\NS(=O)(=O)c1ccccc1)c1ccccc1

1. > 100 µM
2. > 100 µM
3. > 100 µM
4. > 100 µM
5. > 100 µM
6. > 100 µM
7. > 100 µM

* * *

Test system: OVCAR-8 ovarian
EXPERIMENTAL_PROTOCOL: NCI tumour cell line growth inhibition, 48 h
PARAMETER_MEASURED: TGI

Worked examples follow.
[[record]]
molecule = "CC1=C(C(=O)Nc2ccccc2C)C(/C=C/c2ccccc2)C(C(=O)Nc2ccccc2C)=C(C)N1"
result = "> 100 µM"

[[record]]
molecule = "CCCCCCCCCCCCCCCCCCNC(=O)[C@H]1CSC(c2cccs2)N1 (stereo not given in full)"
result = "3.34 µM"

[[record]]
molecule = "O=C1CN2C(c3ccccc3)=NN(c3ccc([N+](=O)[O-])cc3)C2(c2ccccc2)c2cc(Cl)ccc2N1CC1CC1 (stereo not given)"
result = "> 100 µM"


// batch mode: one TGI value per listed entry
1. CC(=O)NNc1nc(C)c(C(=O)NNC(=O)C(=O)Nc2nc3ccc([N+](=O)[O-])cc3s2)s1
2. c1ccc2sc(SCSc3nc4ccccc4s3)nc2c1
3. O=c1ccc2cc3ccc4cccc5ccc(c2o1)c3c45
4. CO[C@]12CC(=O)C3(C(C[C@H]4CC5CC=C6C[C@@H](OC(C)=O)CC[C@]6(OC(C)=O)C5C[C@@]43C)C1)C1C[C@H]3[C@@H]4CC=C5C[C@@H](OC(C)=O)CC[C@]5(OC(C)=O)[C@H]4CC[C@]3(C)C12 (stereo not given in full)
5. CCOC(=O)/C(=C/c1cccc(OC)c1)N(CC)CC
6. Nc1c(-c2cccc3ccccc23)c2ccc([N+](=O)[O-])cc2c(=O)n1-c1nc2ccccc2s1
7. COCOc1ccc(Cn2c(=O)n(C)c(=O)c3c2ncn3C)cc1[N+](=O)[O-]
8. C=CCC1[C@@H](C(C)(C)C(C(C)=O)C(=O)C(=O)OC)OC(C(C)(C)C)N1C(=O)OC (stereo not given in full)

> 100 µM
> 100 µM
> 100 µM
> 100 µM
> 100 µM
10.5 µM
> 100 µM
> 100 µM

// batch mode: one TGI value per listed entry
1. CCN(CCO)CC1COc2ccccc2O1 (stereo not given)
2. CCCn1c(CN(Cc2nc3ccccc3n2CCC)Cc2nc3ccccc3n2CCC)nc2ccccc21
3. C(=N\NC1=NCCCN1)/c1ccc2ccccc2c1
4. O=C(CCCN1CCC2(CC1)CC(=O)N(N1CCOCC1)C2=O)c1ccccc1
5. O=C(c1cc2ccccc2cc1O)N1CCCCC1
6. CNC(SC)=C1C(=O)OC(C)(C)OC1=O
7. COc1nc(C#CCC(C)O)nc(OC)n1 (stereo not given)

1: > 100 µM; 2: > 100 µM; 3: 29.3 µM; 4: > 100 µM; 5: > 100 µM; 6: > 100 µM; 7: 39.5 µM

// batch mode: one TGI value per listed entry
1. CC(C)c1ccccc1NC(=O)/C(Cl)=C1/Sc2ccccc2NC1=O
2. CCCNC(=O)CCC(C)[C@H]1CCC2C3C(C[C@H](OC(C)=O)[C@@]21C)[C@@]1(C)CCC2(C[C@H]1C[C@H]3OC(C)=O)OOC1(CCC(C)CC1)OO2 (stereo not given in full)

1: > 100 µM; 2: 48.3 µM

// batch mode: one TGI value per listed entry
1. CC1(C)N=C(C(N)=O)c2ncn(CCCO)c2N1
2. O=C(NC(Cc1ccc(I)cc1)C(=O)O)c1ccc(I)cc1 (stereo not given)
3. COc1ccc(/C=C2/CCc3cc4ccc(OC)cc4[o+]c32)c(O)c1
4. N=S(c1ccccc1)c1ccccc1[N+](=O)[O-] (stereo not given)
5. CCCCC1c2c([nH]c3ccccc23)C2C(=O)N(c3ccc(OC)cc3)C(=O)C2C1CCC (stereo not given)

["> 100 µM", "> 100 µM", "6.13 µM", "51.5 µM", "8.24 µM"]

// batch mode: one TGI value per listed entry
1. Cc1nn(C(=O)Cc2ccccc2)c2c1C(c1ccc(O)cc1)SC(N)=N2 (stereo not given)
2. CC(C)/C(Cl)=N\OC(=O)Nc1ccc(C#N)cc1
3. CC12CC(=O)C3C(C(=O)C1)C32C (stereo not given)
4. Clc1ccc(-c2nn3c(-c4ccncc4)nnc3s2)cc1
5. C=CCO/N=C/c1cc(NC(=S)c2ccoc2C)ccc1Cl

["> 100 µM", "31 µM", "> 100 µM", "> 100 µM", "33.9 µM"]
